- measured.target: Adrenergic receptor alpha-2 (Rattus norvegicus, UniProt P22086+P19328+P22909)
- measurement.description: In vitro inhibition of [3H]clonidine binding at the alpha-2 adrenergic receptor.
- Format: protein assay
Catalogue of Ki values
Numeric only. Scale: µM

Worked cases, answers included:
compound_string=O=[N+]([O-])c1ccc2c(c1)CN[C@H](CF)C2 reported_measurement=140
compound_string=C[C@H]1Cc2ccccc2CN1 reported_measurement=5.7
compound_string=N#Cc1ccc2c(c1)CN[C@@H](CF)C2 reported_measurement=360
compound_string=O=[N+]([O-])c1ccc2c(c1)CN[C@@H](CCl)C2 reported_measurement=100
compound_string=N#Cc1ccc2c(c1)CN[C@H](CF)C2 reported_measurement=580
compound_string=C[C@@H]1Cc2ccccc2CN1 reported_measurement=0.49
compound_string=ClC[C@H]1Cc2ccccc2CN1 reported_measurement=2.3
compound_string=FC[C@@H]1Cc2ccccc2CN1 reported_measurement=37
compound_string=C[C@@H]1Cc2ccc([N+](=O)[O-])cc2CN1 reported_measurement=19
compound_string=O=[N+]([O-])c1ccc2c(c1)CN[C@H](CCl)C2 reported_measurement=270

Returns the measured Ki for the input molecule. Input: O=[N+]([O-])c1ccc2c(c1)CN[C@@H](CF)C2
47

Which Ki is listed for C[C@H]1Cc2ccc([N+](=O)[O-])cc2CN1 ?
53

I have this molecule here, O=S(=O)(Nc1ccc(Cl)cc1)c1ccc2c(c1)CN[C@H](CF)C2 , and I need its recorded Ki.
101

Record request: Ki value, item ClC[C@@H]1Cc2ccccc2CN1
6.6

Request the reported Ki associated with FC[C@@H]1Cc2ccc(Br)cc2CN1
17

Query: Ki; subject: OC[C@@H]1Cc2ccc(Br)cc2CN1
0.97

Fill blank: measured Ki of the molecule O=S(=O)(Nc1ccc(Cl)cc1)c1ccc2c(c1)CN[C@@H](CF)C2 is ____.
97

Requested read-out: Ki. Entry: OC[C@H]1Cc2ccc(Br)cc2CN1
1.2

Given FC[C@H]1Cc2ccccc2CN1 , state its recorded Ki.
2.9

What measured Ki goes with FC[C@H]1Cc2ccc(Br)cc2CN1 ?
3.1
